Values compiled from patent US20030134292A1.

- Study System: Taq Δ271 F667Y E681W (polymerase B) (Thermus aquaticus, UniProt P19821, E681W/F272M/F667Y)
- Construct: made in house; host or cells: E. coli
- Sequence (P19821 272-832 F272M/F667Y/E681W): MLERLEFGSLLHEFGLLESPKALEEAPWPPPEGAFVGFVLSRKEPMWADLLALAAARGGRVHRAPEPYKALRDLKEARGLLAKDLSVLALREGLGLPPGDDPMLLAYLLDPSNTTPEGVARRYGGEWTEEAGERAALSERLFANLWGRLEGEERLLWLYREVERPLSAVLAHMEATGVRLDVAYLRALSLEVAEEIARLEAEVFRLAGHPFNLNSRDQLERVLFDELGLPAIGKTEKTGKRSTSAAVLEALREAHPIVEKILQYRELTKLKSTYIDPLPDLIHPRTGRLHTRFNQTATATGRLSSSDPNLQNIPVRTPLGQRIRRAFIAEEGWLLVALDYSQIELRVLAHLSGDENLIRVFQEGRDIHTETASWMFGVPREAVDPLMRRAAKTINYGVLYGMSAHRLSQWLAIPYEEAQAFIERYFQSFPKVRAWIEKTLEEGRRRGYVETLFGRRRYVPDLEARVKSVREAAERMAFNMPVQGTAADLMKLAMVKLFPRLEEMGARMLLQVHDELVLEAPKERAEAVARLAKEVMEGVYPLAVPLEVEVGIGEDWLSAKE
- Protocol Summary: DNA polymerase activity assay with detergent or additive, Taq Δ271 F667Y E681W purified without detergent
- Format: biochemical
- Condition Parameters: additive final concentration 0.1% (w/v)
Reported Property: Taq Δ271 F667Y E681W activity relative to 0.5% each NP-40 and Tween 20

| Molecule | Observed Value |
| --- | --- |
| CCCCCCCCCC[N+](C)(C)CCCS(=O)(=O)[O-] | − − (Activity 20-50%) |
| CCCCCCCCO[C@@H]1O[C@H](CO)[C@H](O)[C@H](O)[C@H]1O [N-octyl β-D-galactopyranoside] | − (Activity 50-60%) |
| C[C@H](CCC(=O)NCCC[N+](C)(C)CCCS(=O)(=O)[O-])[C@H]1CC[C@H]2[C@@H]3[C@H](O)C[C@@H]4C[C@H](O)CC[C@]4(C)[C@H]3C[C@H](O)[C@]12C | − (Activity 50-60%) |
| C[C@H](CCC(=O)NCCC[N+](C)(C)CC(O)CS(=O)(=O)[O-])[C@H]1CC[C@H]2[C@@H]3[C@H](O)C[C@@H]4C[C@H](O)CC[C@]4(C)[C@H]3C[C@H](O)[C@]12C (stereo partly drawn) | − − (Activity 20-50%) |

* * *

- Study System: Taq Δ271 F667Y (polymerase A) (Thermus aquaticus, UniProt P19821, F272M/F667Y)
- Construct: made in house; host or cells: E. coli
- Sequence (P19821 272-832 F272M/F667Y): as the sequence (P19821 272-832 F272M/F667Y/E681W) above, with W410E counted along it
- Protocol Summary: DNA polymerase activity assay with detergent or additive, Taq Δ271 F667Y purified without detergent
- Type: biochemical
- Condition Parameters: additive final concentration 0.01% (w/v)
Reported Property: Taq Δ271 F667Y activity relative to 0.5% each NP-40 and Tween 20

| Compound | Observed Value |
| --- | --- |
| CCCCCCCCC(=O)N(C)C[C@H](O)[C@@H](O)[C@H](O)[C@H](O)CO [Mega-9, Nonyl-N-methylglucamide] | − − − (Activity < 20%) |
| CCCCCCCCCCCCO[C@@H]1O[C@H](CO)[C@@H](O[C@H]2O[C@H](CO)[C@@H](O)[C@H](O)[C@H]2O)[C@H](O)[C@H]1O [n-Dodecyl-β-D-Maltoside, n-dodecyl-β-D-maltoside] | + ++ |
| CC1=NCC[C@@H](C(=O)O)N1 [Ectoin] | − − − (Activity < 20%) |

* * *

- Study System: Taq Δ271 F667Y E681W (polymerase B) (Thermus aquaticus, UniProt P19821, E681W/F272M/F667Y)
- Construct: made in house; host or cells: E. coli
- Protocol Summary: DNA polymerase activity assay with detergent or additive, Taq Δ271 F667Y E681W purified without detergent
- Assay type: biochemical
- Condition Parameters: additive final concentration 0.01% (w/v)
Reported Property: Taq Δ271 F667Y E681W activity relative to 0.5% each NP-40 and Tween 20

| Molecule | Study System | Observed Value |
| --- | --- | --- |
| CCCCCCCCO[C@@H]1O[C@H](CO)[C@H](O)[C@H](O)[C@H]1O [N-octyl β-D-galactopyranoside] | Taq Δ271 F667Y E681W (polymerase B) (Thermus aquaticus, UniProt P19821, E681W/F272M/F667Y) | − − − (Activity < 20%) |
| CC1=NCC[C@@H](C(=O)O)N1 [Ectoin] | Taq Δ271 F667Y E681W (polymerase B) (Thermus aquaticus, UniProt P19821, E681W/F272M/F667Y) | − − − (Activity < 20%) |
| CCCCCCCCCCCCCC[N+](C)(C)CCCS(=O)(=O)[O-] [Zwittergent 3-14] | Taq Δ271 F667Y E681W (polymerase B) (Thermus aquaticus, UniProt P19821, E681W/F272M/F667Y) | − − − (Activity < 20%) |
| CCCCCCCCCC(=O)N(C)C[C@H](O)[C@@H](O)[C@H](O)[C@H](O)CO [Mega-10, D-decanoyl-N-methyl glucamide] | Taq Δ271 F667Y E681W (polymerase B) (Thermus aquaticus, UniProt P19821, E681W/F272M/F667Y) | − − − (Activity < 20%) |

Request: Item CCCCCCCCO[C@@H]1O[C@H](CO)[C@@H](O)[C@H](O)[C@H]1O [Octyl Glucopyranoside, n-octyl-β-D-glucopyranoside] : provide Taq Δ271 F667Y E681W activity relative to 0.5% each NP-40 and Tween 20
Result: − − − (Activity < 20%)

* * *

- Study System: Tth Δ273 F668Y (polymerase C) (Thermus thermophilus, UniProt P52028, F274M/F669Y)
- Construct: made in house; host or cells: E. coli
- Sequence (P52028 274-834 F274M/F669Y): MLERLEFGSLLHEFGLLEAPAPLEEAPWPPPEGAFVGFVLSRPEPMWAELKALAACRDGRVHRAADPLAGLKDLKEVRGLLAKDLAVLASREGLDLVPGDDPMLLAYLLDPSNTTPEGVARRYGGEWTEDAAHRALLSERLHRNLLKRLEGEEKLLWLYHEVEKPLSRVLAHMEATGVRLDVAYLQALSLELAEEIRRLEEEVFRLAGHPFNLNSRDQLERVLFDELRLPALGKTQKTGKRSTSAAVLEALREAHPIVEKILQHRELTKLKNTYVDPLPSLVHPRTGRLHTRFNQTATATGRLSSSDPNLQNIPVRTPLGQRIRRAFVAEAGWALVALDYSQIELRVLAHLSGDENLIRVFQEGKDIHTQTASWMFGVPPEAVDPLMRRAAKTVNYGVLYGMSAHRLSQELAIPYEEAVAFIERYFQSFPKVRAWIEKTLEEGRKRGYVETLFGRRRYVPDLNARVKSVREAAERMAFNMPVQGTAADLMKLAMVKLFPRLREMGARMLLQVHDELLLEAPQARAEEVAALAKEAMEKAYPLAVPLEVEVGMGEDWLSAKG
- Protocol Summary: DNA polymerase activity assay with detergent or additive, Tth Δ273 F668Y purified without detergent
- Type: biochemical
- Condition Parameters: additive final concentration 0.05% (w/v)
Reported Property: Tth Δ273 F668Y activity relative to 0.5% each NP-40 and Tween 20

| Compound | Observed Value |
| --- | --- |
| C[C@H](CCC(=O)NCCC[N+](C)(C)CC(O)CS(=O)(=O)[O-])[C@H]1CC[C@H]2[C@@H]3[C@H](O)C[C@@H]4C[C@H](O)CC[C@]4(C)[C@H]3C[C@H](O)[C@]12C (stereo partly drawn) | − − (Activity 20-50%) |
| C[C@H](CCC(=O)[O-])[C@H]1CC[C@H]2[C@@H]3[C@H](O)C[C@@H]4C[C@H](O)CC[C@]4(C)[C@H]3C[C@H](O)[C@]12C.[Na+] [Sodium Cholate] | − − − (Activity < 20%) |
| CCCCCCCCCC[N+](C)(C)CCCS(=O)(=O)[O-] | − − (Activity 20-50%) |
| CCCCCCCCCC(=O)N(C)C[C@H](O)[C@@H](O)[C@H](O)[C@H](O)CO [Mega-10, D-decanoyl-N-methyl glucamide] | − − (Activity 20-50%) |
| CCCCCCCC[N+](C)(C)CCCS(=O)(=O)[O-] | − − (Activity 20-50%) |

Request: Item `C[C@H](CCC(=O)NCCC[N+](C)(C)CCCS(=O)(=O)[O-])[C@H]1CC[C@H]2[C@@H]3[C@H](O)C[C@@H]4C[C@H](O)CC[C@]4(C)[C@H]3C[C@H](O)[C@]12C` : provide Tth Δ273 F668Y activity relative to 0.5% each NP-40 and Tween 20
Result: − − (Activity 20-50%)

Request: Item CC1=NC[C@H](O)[C@@H](C(=O)O)N1 [Hydroxyectoin] : provide Tth Δ273 F668Y activity relative to 0.5% each NP-40 and Tween 20
Result: − − − (Activity < 20%)

* * *

- Study System: Taq Δ271 F667Y (polymerase A) (Thermus aquaticus, UniProt P19821, F272M/F667Y)
- Construct: made in house; host or cells: E. coli
- Protocol Summary: DNA polymerase activity assay with detergent or additive, Taq Δ271 F667Y purified without detergent
- Type: biochemical
- Condition Parameters: additive final concentration 0.05% (w/v)
Reported Property: Taq Δ271 F667Y activity relative to 0.5% each NP-40 and Tween 20

| Compound | Observed Value |
| --- | --- |
| C[C@H](CCC(=O)[O-])[C@H]1CC[C@H]2[C@@H]3[C@H](O)C[C@@H]4C[C@H](O)CC[C@]4(C)[C@H]3C[C@H](O)[C@]12C.[Na+] [Sodium Cholate] | − − − (Activity < 20%) |
| CC1=NC[C@H](O)[C@@H](C(=O)O)N1 [Hydroxyectoin] | − − − (Activity < 20%) |
| CCCCCCCCO[C@@H]1O[C@H](CO)[C@H](O)[C@H](O)[C@H]1O [N-octyl β-D-galactopyranoside] | − − (Activity 20-50%) |
| CCCCCCCCCC[N+](C)(C)CCCS(=O)(=O)[O-] | − − (Activity 20-50%) |
| CCCCCCCC[N+](C)(C)CCCS(=O)(=O)[O-] | − − − (Activity < 20%) |

Request: Item CCCCCCCCC(=O)N(C)C[C@H](O)[C@@H](O)[C@H](O)[C@H](O)CO [Mega-9, Nonyl-N-methylglucamide] : provide Taq Δ271 F667Y activity relative to 0.5% each NP-40 and Tween 20
Result: − − (Activity 20-50%)

Request: Item C[C@H](CCC(=O)NCCC[N+](C)(C)CC(O)CS(=O)(=O)[O-])[C@H]1CC[C@H]2[C@@H]3[C@H](O)C[C@@H]4C[C@H](O)CC[C@]4(C)[C@H]3C[C@H](O)[C@]12C (stereo partly drawn) : provide Taq Δ271 F667Y activity relative to 0.5% each NP-40 and Tween 20
Result: − − (Activity 20-50%)
